Target: human ROR1 (hROR1) on cells (human, UniProt Q01973 30-937)
Sequence (Q01973 30-937): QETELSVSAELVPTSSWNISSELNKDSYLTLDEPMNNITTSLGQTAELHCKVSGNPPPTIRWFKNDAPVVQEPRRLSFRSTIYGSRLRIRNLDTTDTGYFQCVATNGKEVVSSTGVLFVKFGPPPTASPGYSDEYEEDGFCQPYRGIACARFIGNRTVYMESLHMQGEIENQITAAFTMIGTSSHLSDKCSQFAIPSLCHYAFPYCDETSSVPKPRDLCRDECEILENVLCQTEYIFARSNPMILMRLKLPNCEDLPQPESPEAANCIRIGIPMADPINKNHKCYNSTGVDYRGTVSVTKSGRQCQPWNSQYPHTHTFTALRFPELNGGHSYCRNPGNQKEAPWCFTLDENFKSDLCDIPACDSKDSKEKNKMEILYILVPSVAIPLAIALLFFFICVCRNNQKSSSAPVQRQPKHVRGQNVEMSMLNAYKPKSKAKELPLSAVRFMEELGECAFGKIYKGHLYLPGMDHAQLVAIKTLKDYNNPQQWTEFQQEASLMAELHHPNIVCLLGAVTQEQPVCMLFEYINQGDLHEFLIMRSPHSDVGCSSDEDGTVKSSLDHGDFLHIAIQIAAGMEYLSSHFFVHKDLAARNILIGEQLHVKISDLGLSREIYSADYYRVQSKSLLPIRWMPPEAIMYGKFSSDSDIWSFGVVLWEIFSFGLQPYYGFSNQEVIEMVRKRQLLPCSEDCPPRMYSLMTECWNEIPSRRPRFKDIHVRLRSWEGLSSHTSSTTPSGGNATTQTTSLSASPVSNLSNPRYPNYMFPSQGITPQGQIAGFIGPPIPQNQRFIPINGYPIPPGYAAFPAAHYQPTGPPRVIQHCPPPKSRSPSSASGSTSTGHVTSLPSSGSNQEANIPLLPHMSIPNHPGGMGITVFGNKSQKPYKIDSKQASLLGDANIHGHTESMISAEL
Experiment: cell-based or functional assay
Form field: ADCC Cytotoxicity (%), Donor 2, 1 nM (one value per entry).

# Binder, ADCC Cytotoxicity (%), Donor 2, 1 nM
records = [
    ("Positive control antibody (PR000374) (antibody, human IgG1, kappa, V domains shown) VH: EVQLVESGGGLVQPGRSLRLSCTASGSDINDYPITWVRQAPGQGLEWIGFINSGGSTWYASWVKGRFTISRDDSKSIAYLQMNSLKTEDTAVYYCARGYSTYYRDFNIWGQGTLVTVSS VL: DIQMTQSPSSLSASVGDRVTINCQASQSIDSNLAWFQQKPGQPPKLLIYRASNLASGVPDRFSGSGSGTDFTLTISSLEAEDVATYYCLGGVGAVSYRTSFGGGTKVEIKR", 11.4),
    ("PR001355 (antibody, human IgG1, kappa, V domains shown, fully human IgG1, kappa) VH: QVQLVQSGGGLVQPGGSLRLSCAASGFTFSSYGMHWVRQAPGKGLEWVAVIWYDGSNKDYADSVKGRFTISRDTSKNTLYLQMNSLRAEDTAVYYCVREQARSFDLWGRGTLVTVSS VL: DIQMTQSPSSLSASVGDRVTITCRASQTMNNWLAWYQQKPGKAPKLLIYKASSLESGVPSRFSGSGSGTEFTLTISSLQPDDSATYYCQQYNSYSPMYTFGQGTKLEIKR", 14.1),
    ("PR001359 (antibody, human IgG1, kappa, V domains shown, fully human IgG1, kappa) VH: QVQLVESGGGVVQPGRSLRLSCAASGFTFSTYGMHWVRQAPGKGLEWVAVTWYDGSDKDYADSVKGRFTISRDTSKNTLYLQMNSLRAEDTAVYYCAREQARSFDLWGRGTLVTVSS VL: DIVMTQSPSTLSASVGDRVTITCRASQSVNNWLAWYQQKPGKAPKLLIYKASSLESGVPSRFSGSGSGTEFTLTISSLQPDDFATYYCQQYKSYSPMYTFGQGTKVEIKR", 21.9),
    ("PR001362 (antibody, V domains shown, fully human IgG1, kappa) VH: QVQLVESGGGLVQPGGSLRLSCAASGFTFSTYGMHWVRQAPGKGLEWVAVIWYDGSDEDYADSVKGRFTISRDNSKNTLYLQMNSLRAEDTAVYYCARDQARSFDLWGRGTLVTVSS VL: DIVMTQSPSTLSASVGDRVTITCRASQSINSWLAWYQQKPGKAPKLLIYKASSLESGVPSRFSGSGSGTEFTLTISSLQPDDFATYYCQQYKSYSPMYTFGQGTKVEIKR", 13.2),
]
